The reported numbers originate from patent US7888347B2.

# targetOfAssay: histamine H3 receptor (Homo sapiens, UniProt Q9Y5N1)
# Construct: expressed in transfected cells; host or cells: CHO K1 cells (pSwitch/pGene GeneSwitch system, mifepristone-induced), clone 3H3; membrane preparation
# Sequence (Q9Y5N1 whole entry): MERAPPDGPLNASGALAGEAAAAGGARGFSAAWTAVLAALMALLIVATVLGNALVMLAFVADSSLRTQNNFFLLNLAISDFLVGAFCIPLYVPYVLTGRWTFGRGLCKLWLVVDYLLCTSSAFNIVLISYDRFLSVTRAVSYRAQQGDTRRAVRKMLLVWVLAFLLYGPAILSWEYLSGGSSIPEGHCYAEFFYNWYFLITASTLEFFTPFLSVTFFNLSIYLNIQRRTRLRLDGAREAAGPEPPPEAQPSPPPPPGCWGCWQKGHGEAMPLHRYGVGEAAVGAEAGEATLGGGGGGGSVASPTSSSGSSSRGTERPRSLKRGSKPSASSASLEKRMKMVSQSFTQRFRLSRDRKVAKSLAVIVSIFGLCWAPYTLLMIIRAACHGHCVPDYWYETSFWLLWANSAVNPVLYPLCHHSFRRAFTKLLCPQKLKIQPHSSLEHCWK
# assayProcedure: Histamine H3 functional antagonist assay ([35S]-GTPγS SPA on membranes)
# Type: biochemical
# condition: hydrochloride salts tested; membrane prepared from cultured H3 cells; averages of a number of experiments; read-out: functional pKi (fpKi), histamine H3 functional antagonism (converted)
Provide the reported Ki of each item.

Some solved entries appear below for comparison.
CN1CCN(c2ccc(-n3cc4c(n3)CCN(C3CCC3)CC4)cc2)C1=O [Example E36] :: < 0.316 nM
O=C1OCCN1c1ccc(-n2cc3c(n2)CCN(C2CCC2)CC3)cc1 [Example E37] :: < 0.316 nM
O=C1CCCN1c1ccc(-n2cc3c(n2)CCN(C2CCCC2)CC3)cc1 [Example E24] :: < 1 nM
Cc1noc(-c2ccc(-n3cc4c(n3)CCN(C(C)C)CC4)cc2)n1 [Example E15] :: < 1 nM

Your task in this section: give Ki for each listed record.
1. c1cc(-n2cc3c(n2)CCN(C2CCC2)CC3)ccc1N1CCOCC1 [Example E39]
2. CC(C)N1CCc2cn(-c3ccc(N4CCOC4=O)cc3)nc2CC1 [Example E9]
3. CCN1CCc2cn(-c3ccc(N4CCCC4=O)cc3)nc2CC1 [Example E18]
4. O=C1OCCN1c1ccc(-n2cc3c(n2)CCN(C2CCCC2)CC3)cc1 [Example E30]
5. CN1CCN(c2ccc(-n3cc4c(n3)CCN(C3CCCC3)CC4)cc2)C1=O [Example E31]

Reply text:
1: < 1 nM; 2: < 1 nM; 3: < 0.316 nM; 4: < 1 nM; 5: < 1 nM

###

# targetOfAssay: histamine H3 receptor (Homo sapiens)
# Construct: expressed in transfected cells; host or cells: CHO K1 cells (pSwitch/pGene GeneSwitch system, mifepristone-induced), clone 3H3; membrane preparation
# assayProcedure: Histamine H3 functional antagonist assay ([35S]-GTPγS SPA on membranes)
# Format: biochemical
# condition: hydrochloride salts tested; membrane prepared from cultured H3 cells; averages of a number of experiments; read-out: functional pKi (fpKi), histamine H3 functional antagonism (converted)
# Method: A membrane preparation containing histamine H3 receptors may be prepared in accordance with the following procedures: (i) Generation of Histamine H3 Cell Line […] 10-14 days post selection 10 nM Mifepristone (InVitrogen), was added to the culture medium to induce the expression of the receptor. […] Receptor bound antibody was detected by incubation of the cells for 60 minutes on ice with a goat anti rabbit antibody, conjugated with Alexa 488 fluorescence marker (Molecular Probes). […]
For each record, write down the corresponding Ki.

// known answers, use as guide
Cc1noc(-c2ccc(-n3cc4c(n3)CCN(C3CCCC3)CC4)cc2)n1 :: < 1 nM
O=C1CCCN1c1ccc(-n2cc3c(n2)CCN(C2CCC2)CC3)cc1 :: < 0.316 nM
CC(C)CN1CCc2cn(-c3ccc(N4CCCC4=O)cc3)nc2CC1 :: < 1 nM
Cc1ccc(N2CCC(n3cc4c(n3)CCN(C3CCC3)CC4)CC2)cn1 :: < 1 nM
CC(C)CN1CCc2cn(-c3ccc(N4CCOC4=O)cc3)nc2CC1 :: < 1 nM

Provide Ki for all items below, preserving their order.
1. CC(C)N1CCc2cn(-c3ccc(N4CCCC4=O)cc3)nc2CC1
2. CC(C)N1CCc2cn(-c3ccc(N4CCN(C)C4=O)cc3)nc2CC1
3. O=C1CCCN1c1ccc(-n2cc3c(n2)CCN(C2CCC2)CC3)cn1
4. Cc1noc(-c2ccc(-n3cc4c(n3)CCN(C3CCC3)CC4)cc2)n1

Reply text:
["< 1 nM", "< 1 nM", "< 1 nM", "< 1 nM"]
